Each recorded value in this set is attributed to patent US10597388B2.

- Tested on: speedwell (bird's-eye speedwell, Veronica persica)
- ASSAY: Test D controlled growth environment herbicide test, pre- and postemergence
- Format: in vivo
- TEST CONTEXT: Preemergence, 250 g ai/ha; scale 0 to 100 (0 no effect, 100 complete control)
ASSAY READOUT: Plant response rating, Speedwell
Please give only the number in your answer, with no unit.

Quickly give me recorded Plant response rating, Speedwell for CC(=O)Oc1c(C)nn(C)c(=O)c1-c1ccc(F)c2ccccc12 [Compound 90]
100

Quickly give me recorded Plant response rating, Speedwell for CCOC(=O)Oc1c(C)nn(C)c(=O)c1-c1c(C)sc2c(C)cc(C)cc12 [Compound 83]
100

Quickly give me recorded Plant response rating, Speedwell for COc1nn(C)c(=O)c(-c2c(C)ccc3ccccc23)c1O [Compound 54]
100

Quickly give me recorded Plant response rating, Speedwell for Cc1ccc2ccccc2c1-c1c(O)c(C)nn(C)c1=O [Compound 59]
100

Quickly give me recorded Plant response rating, Speedwell for Cc1ccc2sc(C)c(-c3c(O)c(C)nn(C)c3=O)c2c1 [Compound 1]
95

----------
- Tested on: nightshade (eastern black nightshade, Solanum ptycanthum)
- ASSAY: Test E greenhouse herbicide test, pre- and postemergence
- Type: in vivo
- TEST CONTEXT: Preemergence, 250 g ai/ha; visual, scale 0 no effect to 100 complete control
ASSAY READOUT: Plant response rating, Nightshade
Please give only the number in your answer, with no unit.

Quickly give me recorded Plant response rating, Nightshade for CCOC(=O)Oc1c(C)nn(C)c(=O)c1-c1c(C)sc2c(C)cc(C)cc12
100

Quickly give me recorded Plant response rating, Nightshade for CCOC(=O)Oc1c(C)nn(C)c(=O)c1-c1c(CC)ccc2ccccc12
98

Quickly give me recorded Plant response rating, Nightshade for Cc1ccc2sc(C)c(-c3c(O)c(C)nn(C)c3=O)c2c1
100

Quickly give me recorded Plant response rating, Nightshade for C#CCOC(=O)Oc1c(C)nn(C)c(=O)c1-c1c(C)sc2ccc(C)cc12
98

Quickly give me recorded Plant response rating, Nightshade for CCC(=O)Oc1c(C)nn(C)c(=O)c1-c1c(C)sc2c(C)cc(C)cc12
100

----------
- System: galium (catchweed bedstraw, Galium aparine)
- ASSAY: Test A greenhouse herbicide test, postemergence
- Assay type: in vivo
- TEST CONTEXT: 125 g ai/ha, 0 to 100 scale, 0 no effect, 100 complete control
ASSAY READOUT: Plant response rating, Galium
Please give only the number in your answer, with no unit.

Please respond with reported Plant response rating, Galium (system galium (catchweed bedstraw, Galium aparine)) for Cc1ccc2ccccc2c1-c1c(OC(=O)N2CCOCC2)c(Br)nn(C)c1=O [Compound 176] .
90

Please respond with reported Plant response rating, Galium (system galium (catchweed bedstraw, Galium aparine)) for Cc1ccc2ccccc2c1-c1c(O)c([N+](=O)[O-])nn(C)c1=O [Compound 177] .
0

Please respond with reported Plant response rating, Galium (system galium (catchweed bedstraw, Galium aparine)) for Cc1nn(C)c(=O)c(-c2c([N+](=O)[O-])ccc3ccccc23)c1OC(=O)C(C)(C)C [Compound 163] .
30

Please respond with reported Plant response rating, Galium (system galium (catchweed bedstraw, Galium aparine)) for Cc1n[nH]c(=O)c(-c2cccc3ccccc23)c1OC(F)F [Compound 175] .
0

----------
- System: radish, wild (wild radish, Raphanus raphanistrum)
- ASSAY: Test D controlled growth environment herbicide test, pre- and postemergence
- Assay type: in vivo
- TEST CONTEXT: Preemergence, 250 g ai/ha; scale 0 to 100 (0 no effect, 100 complete control)
Record form. Attribute: Plant response rating, Radish, Wild. Fill in for each entry.
Please give only the number in your answer, with no unit.

Please respond with reported Plant response rating, Radish, Wild (system radish, wild (wild radish, Raphanus raphanistrum)) for Cc1nn(C)c(=O)c(-c2c(C)sc3ccc(Cl)cc23)c1O .
100

Please respond with reported Plant response rating, Radish, Wild (system radish, wild (wild radish, Raphanus raphanistrum)) for CC(=O)Oc1c(C)nn(C)c(=O)c1-c1c(C)sc2c(C)cc(C)cc12 .
95

Please respond with reported Plant response rating, Radish, Wild (system radish, wild (wild radish, Raphanus raphanistrum)) for Cc1ccc2ccccc2c1-c1c(O)c(C)nn(C)c1=O .
100

Please respond with reported Plant response rating, Radish, Wild (system radish, wild (wild radish, Raphanus raphanistrum)) for Cc1ccc2sc(C)c(-c3c(O)c(C)nn(C)c3=O)c2c1 .
100

Please respond with reported Plant response rating, Radish, Wild (system radish, wild (wild radish, Raphanus raphanistrum)) for CCOC(=O)Oc1c(C)nn(C)c(=O)c1-c1c(C)sc2c(C)cc(C)cc12 .
90

Please respond with reported Plant response rating, Radish, Wild (system radish, wild (wild radish, Raphanus raphanistrum)) for CCOC(=O)Oc1c(C)nn(C)c(=O)c1-c1c(C)ccc2ccccc12 .
90

Please respond with reported Plant response rating, Radish, Wild (system radish, wild (wild radish, Raphanus raphanistrum)) for CC(=O)Oc1c(C)nn(C)c(=O)c1-c1c(C)cc(C)c2ccccc12 .
100

----------
- Test system: deadnettle (henbit deadnettle, Lamium amplexicaule)
- ASSAY: Test D controlled growth environment herbicide test, pre- and postemergence
- Assay type: in vivo
- TEST CONTEXT: postemergence, 62 g ai/ha; scale 0 to 100, 0 no effect, 100 complete control
ASSAY READOUT: Plant response rating, Deadnettle
Please give only the number in your answer, with no unit.

Please respond with reported Plant response rating, Deadnettle (system deadnettle (henbit deadnettle, Lamium amplexicaule)) for CCC(=O)Oc1c(C)nn(C)c(=O)c1-c1c(C)sc2ccc(C)cc12 .
25

Please respond with reported Plant response rating, Deadnettle (system deadnettle (henbit deadnettle, Lamium amplexicaule)) for CC(=O)Oc1c(C)nn(C)c(=O)c1-c1ccc(F)c2ccccc12 .
80

Please respond with reported Plant response rating, Deadnettle (system deadnettle (henbit deadnettle, Lamium amplexicaule)) for COC(=O)Oc1c(C)nn(C)c(=O)c1-c1c(C)sc2c(C)cc(C)cc12 .
35

Please respond with reported Plant response rating, Deadnettle (system deadnettle (henbit deadnettle, Lamium amplexicaule)) for CCOC(=O)Oc1c(C)nn(C)c(=O)c1-c1c(C)ccc2ccccc12 .
90

Please respond with reported Plant response rating, Deadnettle (system deadnettle (henbit deadnettle, Lamium amplexicaule)) for Cc1ccc2ccc(C)c(-c3c(O)c(C)nn(C)c3=O)c2c1 .
75

Please respond with reported Plant response rating, Deadnettle (system deadnettle (henbit deadnettle, Lamium amplexicaule)) for Cc1ccc2sc(C)c(-c3c(O)c(C)nn(C)c3=O)c2c1 .
35

Please respond with reported Plant response rating, Deadnettle (system deadnettle (henbit deadnettle, Lamium amplexicaule)) for Cc1cc(C)c2sc(C)c(-c3c(OC(=O)OC(C)C)c(C)nn(C)c3=O)c2c1 .
30

Please respond with reported Plant response rating, Deadnettle (system deadnettle (henbit deadnettle, Lamium amplexicaule)) for CCOC(=O)Oc1c(C)nn(C)c(=O)c1-c1c(C)sc2c(C)cc(C)cc12 .
25

Please respond with reported Plant response rating, Deadnettle (system deadnettle (henbit deadnettle, Lamium amplexicaule)) for CCOC(=O)Oc1c(C)nn(C)c(=O)c1-c1c(C)sc2ccc(C)cc12 .
10

Please respond with reported Plant response rating, Deadnettle (system deadnettle (henbit deadnettle, Lamium amplexicaule)) for CC(=O)Oc1c(C)nn(C)c(=O)c1-c1c(C)cc(C)c2ccccc12 .
75

----------
- Tested on: blackgrass (Alopecurus myosuroides)
- ASSAY: Test D controlled growth environment herbicide test, pre- and postemergence
- Assay type: in vivo
- TEST CONTEXT: Postemergence, 250 g ai/ha; scale 0 to 100 (0 no effect, 100 complete control)
Record form. Attribute: Plant response rating, Blackgrass. Fill in for each entry.
Please give only the number in your answer, with no unit.

Quickly give me recorded Plant response rating, Blackgrass for CC(=O)Oc1c(C)nn(C)c(=O)c1-c1c(C)sc2ccc(C)cc12 [Compound 25]
80

Quickly give me recorded Plant response rating, Blackgrass for CCOC(=O)Oc1c(C)nn(C)c(=O)c1-c1c(C)sc2ccc(C)cc12 [Compound 82]
80

Quickly give me recorded Plant response rating, Blackgrass for Cc1ccc(-c2c(O)c(Br)nn(C)c2=O)c2ccccc12 [Compound 52]
40

Quickly give me recorded Plant response rating, Blackgrass for COc1nn(C)c(=O)c(-c2c(C)ccc3ccccc23)c1OC(=O)OC(C)C [Compound 36]
70

----------
- Tested on: canarygrass (Phalaris minor)
- ASSAY: Test D controlled growth environment herbicide test, pre- and postemergence
- Type: in vivo
- TEST CONTEXT: postemergence, 62 g ai/ha; scale 0 to 100, 0 no effect, 100 complete control
Record form. Attribute: Plant response rating, Canarygrass. Fill in for each entry.

Quickly give me recorded Plant response rating, Canarygrass for Cc1ccc2ccc(C)c(-c3c(O)c(C)nn(C)c3=O)c2c1
80

Quickly give me recorded Plant response rating, Canarygrass for Cc1ccc(-c2c(O)c(Br)nn(C)c2=O)c2ccccc12
0

Quickly give me recorded Plant response rating, Canarygrass for CCC(=O)Oc1c(C)nn(C)c(=O)c1-c1c(C)sc2ccc(C)cc12
75

Quickly give me recorded Plant response rating, Canarygrass for Cc1nn(C)c(=O)c(-c2c(C)sc3ccc(Cl)cc23)c1O
65

Quickly give me recorded Plant response rating, Canarygrass for CCC(=O)Oc1c(C)nn(C)c(=O)c1-c1c(C)sc2ccc(Cl)cc12
55

Quickly give me recorded Plant response rating, Canarygrass for CC(=O)Oc1c(Br)nn(C)c(=O)c1-c1c(C)ccc2ccccc12
55

Quickly give me recorded Plant response rating, Canarygrass for CCOC(=O)Oc1c(C)nn(C)c(=O)c1-c1c(C)sc2c(C)cc(C)cc12
75
